- tgt: Env of HIV-1 strain 3365.v2.c20 (HIV-1)
- test-description: cell-based or functional assay
test-readout: neutralization IC50

Below, 2 binders whose answers are already recorded.
8ANC3040 (antibody, V domains shown) VH: QIHLVQSGTEVKKPGSSVTVSCKAYGVNTFGLYAVNWVRQAPGQSLEYIGQIWRWKSSASHHFRGRVLISAVDLTGSSPPISSLEIKNLTSDDTAVYFCTTTSTYDQWSGLHHDGVMAFSSWGQGTLISVSA VL: DIQMTQSPSTLSASIGDTVRISCRASQSITGNWVAWYQQRPGKAPRLLIYRGAALLGGVPSRFSGSAAGTDFTLTIGNLQAEDFGTFYCQQYDTYPGTFGQGTKVEVKR	> 25 µg/mL
γ46κ11 (antibody, V domains shown) VH: QIHLVQSGTEVKKPGSSVTVSCKAYGVNTFGLYAVNWVRQAPGQGLEYIGQIWRWKSSASHHFRGRVLISAVDLTGSSPPISSLEIKNVTSDDTAVYFCTTTSTYDKWSGLHHDGVVAFSSWGQGTLISVSA VL: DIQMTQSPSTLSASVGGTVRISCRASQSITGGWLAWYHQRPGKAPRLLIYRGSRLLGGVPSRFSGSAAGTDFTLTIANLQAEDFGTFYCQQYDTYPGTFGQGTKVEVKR	> 15 µg/mL

Next item in the queue.
Report neutralization IC50 for γ15κ61 (antibody, V domains shown) VH: QIHLVQSGTEVKKPGSSVTVSCKAYGVNTFGLYAVNWVRQAPGQSLEYIGQIWRWKSSASHHFRGRVIISAVDLTGSSPPISSLEIKNLTSDDTAVYFCTTASTYDKWSGLHHDGVMAFSSWGQGTLISVSA VL: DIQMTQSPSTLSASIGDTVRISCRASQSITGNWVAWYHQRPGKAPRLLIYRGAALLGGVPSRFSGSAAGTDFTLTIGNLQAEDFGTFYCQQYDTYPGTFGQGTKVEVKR please.
> 15 µg/mL
